# method.description: Plasma concentration in Sprague-Dawley rat at 15 mg/kg/day, sc administered via infusion measured after 48 hrs post dose by LC-MS/MS analysis
# Type: ADME, organism-based
property.measured: concentration at 48 h
Reply with the number, then its unit.

stdin: Please look up its concentration at 48 h: COc1cccc(C(=O)N[C@H]2C[C@@](N)(C(=O)O)[C@@H]3[C@@H](C(=O)O)[C@@H]32)c1
stdout: 2130 nM

* * *

# method.description: Plasma concentration in Sprague-Dawley rat at 5 mg/kg/day, sc administered via infusion measured after 24 hrs post dose by LC-MS/MS analysis
# Assay type: ADME, organism-based
property.measured: concentration at 24 h (nM)
Reply with just the number (in nM).

stdin: Need concentration at 24 h, item COc1cccc(C(=O)N[C@H]2C[C@@](N)(C(=O)O)[C@@H]3[C@@H](C(=O)O)[C@@H]32)c1
stdout: 1300

* * *

# assayed.target: Metabotropic glutamate receptor 8 (Homo sapiens, UniProt O00222)
# Sequence (O00222 whole entry): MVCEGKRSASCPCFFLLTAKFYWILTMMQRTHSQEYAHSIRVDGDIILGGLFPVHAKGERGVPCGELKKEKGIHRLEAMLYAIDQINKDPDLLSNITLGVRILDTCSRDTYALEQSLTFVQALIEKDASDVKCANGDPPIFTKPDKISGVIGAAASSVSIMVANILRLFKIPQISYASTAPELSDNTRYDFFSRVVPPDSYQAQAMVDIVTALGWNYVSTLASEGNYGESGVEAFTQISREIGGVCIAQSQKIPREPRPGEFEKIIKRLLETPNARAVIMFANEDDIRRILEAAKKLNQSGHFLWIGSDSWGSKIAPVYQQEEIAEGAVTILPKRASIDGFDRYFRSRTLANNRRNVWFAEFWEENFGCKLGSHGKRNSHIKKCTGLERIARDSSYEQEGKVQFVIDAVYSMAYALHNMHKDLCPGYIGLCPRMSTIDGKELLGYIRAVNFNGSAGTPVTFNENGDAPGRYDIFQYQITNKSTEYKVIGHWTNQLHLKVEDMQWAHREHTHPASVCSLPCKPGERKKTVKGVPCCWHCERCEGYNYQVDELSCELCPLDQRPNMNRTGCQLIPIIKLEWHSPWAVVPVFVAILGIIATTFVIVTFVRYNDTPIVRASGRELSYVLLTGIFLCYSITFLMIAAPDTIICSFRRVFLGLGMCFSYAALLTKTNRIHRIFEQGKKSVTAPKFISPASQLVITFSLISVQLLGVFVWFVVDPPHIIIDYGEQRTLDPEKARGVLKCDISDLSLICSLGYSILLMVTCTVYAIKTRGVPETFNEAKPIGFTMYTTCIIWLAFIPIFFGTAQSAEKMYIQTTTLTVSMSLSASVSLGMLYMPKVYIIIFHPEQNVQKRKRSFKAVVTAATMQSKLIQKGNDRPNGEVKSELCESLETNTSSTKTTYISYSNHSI
# method.description: Antagonist activity at recombinant human mGlu8 receptor expressed in hamster AV12 cells co-expressing rat EAAT1/Galpha15 assessed as inhibition of glutamate induced increase in Ca2+ flux after 2.5 mins by Fluo-3 AM dye-based FLIPR assay
property.measured: IC50

stdin: State the recorded IC50 for this entry: COc1cccc(C(=O)N[C@H]2C[C@@](N)(C(=O)O)[C@@H]3[C@@H](C(=O)O)[C@@H]32)c1
stdout: > 12.5 µM

* * *

# method.description: Plasma concentration in Sprague-Dawley rat at 15 mg/kg/day, sc administered via infusion measured after 24 hrs post dose by LC-MS/MS analysis
# Type: ADME, organism-based
property.measured: concentration at 24 h

stdin: concentration at 24 h for COc1cccc(C(=O)N[C@H]2C[C@@](N)(C(=O)O)[C@@H]3[C@@H](C(=O)O)[C@@H]32)c1 ?
stdout: 3.17 µM

* * *

# method.description: Plasma concentration in Sprague-Dawley rat at 5 mg/kg/day, sc administered via infusion measured after 72 hrs post dose by LC-MS/MS analysis
# Type: ADME, organism-based
property.measured: concentration at 72 h (nM)
Give just the number in nM; leave the unit off.

stdin: // lookup concentration at 72 h for COc1cccc(C(=O)N[C@H]2C[C@@](N)(C(=O)O)[C@@H]3[C@@H](C(=O)O)[C@@H]32)c1
stdout: 1310

* * *

# method.description: Drug level in Sprague-Dawley rat CSF at 1.5 mg/kg/day, sc administered via infusion measured after 72 hrs post dose by LC-MS/MS analysis
# Format: ADME, organism-based, Cerebrospinal fluid
# cond: read-out: Drug uptake
property.measured: concentration at 72 h (nM)
Output spec: scalar in nM, unitless text.

stdin: Reported concentration at 72 h for COc1cccc(C(=O)N[C@H]2C[C@@](N)(C(=O)O)[C@@H]3[C@@H](C(=O)O)[C@@H]32)c1 : what is it?
stdout: 7.5

* * *

# method.description: Drug metabolism in mouse liver microsomes at 4 uM
# Type: ADME, microsome
# cond: read-out: Drug metabolism
property.measured: metabolised at 4 µM (%)
Value expressed in %; do not type the unit.

stdin: # lookup: metabolised at 4 µM of COc1cccc(C(=O)N[C@H]2C[C@@](N)(C(=O)O)[C@@H]3[C@@H](C(=O)O)[C@@H]32)c1
stdout: 11.5

* * *

# assayed.target: Metabotropic glutamate receptor 3 (Homo sapiens, UniProt Q14832)
# Sequence (Q14832 whole entry): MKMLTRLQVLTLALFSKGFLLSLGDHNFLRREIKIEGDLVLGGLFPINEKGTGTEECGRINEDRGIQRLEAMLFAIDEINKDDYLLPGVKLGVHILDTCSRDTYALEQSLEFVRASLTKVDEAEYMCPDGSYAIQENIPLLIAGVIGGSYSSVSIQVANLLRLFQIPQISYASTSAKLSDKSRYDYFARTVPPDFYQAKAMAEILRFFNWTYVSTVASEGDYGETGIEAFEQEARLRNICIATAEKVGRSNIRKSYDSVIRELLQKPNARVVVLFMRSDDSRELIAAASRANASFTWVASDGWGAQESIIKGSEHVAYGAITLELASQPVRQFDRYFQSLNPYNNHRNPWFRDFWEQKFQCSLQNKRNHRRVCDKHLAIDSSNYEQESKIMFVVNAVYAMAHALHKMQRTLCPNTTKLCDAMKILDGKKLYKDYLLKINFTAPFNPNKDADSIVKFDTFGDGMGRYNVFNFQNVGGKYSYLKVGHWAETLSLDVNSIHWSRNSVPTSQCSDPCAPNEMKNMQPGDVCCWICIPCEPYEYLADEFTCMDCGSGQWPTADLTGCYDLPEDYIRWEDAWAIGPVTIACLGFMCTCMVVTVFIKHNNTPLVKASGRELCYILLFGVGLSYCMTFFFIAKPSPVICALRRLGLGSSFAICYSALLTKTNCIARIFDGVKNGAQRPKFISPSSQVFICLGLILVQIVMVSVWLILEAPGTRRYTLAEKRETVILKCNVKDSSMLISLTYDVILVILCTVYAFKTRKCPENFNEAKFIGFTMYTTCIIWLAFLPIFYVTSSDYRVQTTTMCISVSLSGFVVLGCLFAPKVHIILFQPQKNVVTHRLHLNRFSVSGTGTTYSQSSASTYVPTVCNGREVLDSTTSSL
Grouping by measured EC50 is done with the following cut points: lower segment (below 2 nM), middle segment (2 nM to below 5 nM), upper segment (5 nM or more)

Here are 10 compounds together with their reported answers.
• N[C@@]1(C(=O)O)C[C@H](NC(=O)c2ccc(O)cc2)[C@H]2[C@H](C(=O)O)[C@H]21 = middle segment
• N[C@@]1(C(=O)O)C[C@H](NC(=O)C2CCCCC2)[C@H]2[C@H](C(=O)O)[C@H]21 = upper segment
• N[C@@]1(C(=O)O)C[C@H](NC(=O)c2ccc(Cl)cc2)[C@H]2[C@H](C(=O)O)[C@H]21 = upper segment
• N[C@@]1(C(=O)O)C[C@H](NC(=O)CCc2ccccc2)[C@H]2[C@H](C(=O)O)[C@H]21 = upper segment
• N[C@@]1(C(=O)O)C[C@H](NC(=O)c2ccc(F)cc2)[C@H]2[C@H](C(=O)O)[C@H]21 = upper segment
• N[C@@]1(C(=O)O)C[C@H](NCc2ccccc2)[C@H]2[C@H](C(=O)O)[C@H]21 = upper segment
• COc1ccc(C(=O)N[C@H]2C[C@@](N)(C(=O)O)[C@@H]3[C@@H](C(=O)O)[C@@H]32)cc1 = middle segment
• COc1ccccc1C(=O)N[C@H]1C[C@@](N)(C(=O)O)[C@@H]2[C@@H](C(=O)O)[C@@H]21 = upper segment
• N[C@@]1(C(=O)O)C[C@H](NC(=O)c2ccccc2O)[C@H]2[C@H](C(=O)O)[C@H]21 = lower segment
• N[C@@]1(C(=O)O)C[C@H](NC(=O)c2cccc(Cl)c2)[C@H]2[C@H](C(=O)O)[C@H]21 = lower segment

stdin: # classify by EC50 band: N[C@@]1(C(=O)O)C[C@H](NC(=O)c2cccc(O)c2)[C@H]2[C@H](C(=O)O)[C@H]21
stdout: lower segment
